These entries and their values trace back to patent US20230357447A1.

molecular target: T1, Ab-12, anti-PD-L1xCD28 non-masked antibody in Vh format; experiment: competition ELISA: peptide titrated against 5 nM Ab-12; binding of Ab-12 to captured biotinylated CD28 antigen is read; table prints 'IC50 nM' but the axis is Log [Peptide, uM]
T1 construct: also called PDL1xCD28 non-masked (Vh)
Ends that are not written are not given here.
recorded_metric: IC50 (nM)
The reply should contain only the number, in nM.

(Q) Determine from records and report IC50 for MDWCPRERWVDCFF (cysteine pairing not given here; also: biotinylated, site not given here) [Peptide-9]
(A) 1.54
